The reader will find reported DC50 values listed item by item below.
- Tested on: PTPN2
- assay.overview: HiBiT-Degradation B16F10.4 PTPN2
- Type: cell-based
- experimental.conditions: B16F10.4 cells, 24.0 hours
quantity.name: DC50

molecule="Cn1c(=O)n(C2CCC(=O)NC2=O)c2ccc(N3CCC(CC(=O)Nc4ccc5c(F)c(N6CC(=O)NS6(=O)=O)c(O)cc5c4)CC3)cc21 (stereo not drawn)" reported_measurement="10 to 50 nM"
molecule="O=C(CCOCCOCCn1cc(CNc2cccc3c2C(=O)N(C2CCC(=O)NC2=O)C3=O)nn1)NCCOc1ccc2cc(O)c(N3CC(=O)NS3(=O)=O)c(F)c2c1 (stereo not drawn)" reported_measurement="≥ 1000 nM"
molecule="Cn1c(=O)n(C2CCC(=O)NC2=O)c2ccc(C3CCN(CC(=O)N4CCC[C@H](COc5ccc6cc(O)c(N7CC(=O)NS7(=O)=O)c(F)c6c5)C4)CC3)cc21 (stereo partly drawn)" reported_measurement="200 to 1000 nM"
molecule="Cn1c(=O)n(C2CCC(=O)NC2=O)c2ccc(-c3ccc(NC(=O)NCCOc4ccc5cc(O)c(N6CC(=O)NS6(=O)=O)c(F)c5c4)cc3)cc21 (stereo not drawn)" reported_measurement="50 to 200 nM"
molecule="Cn1c(=O)n(C2CCC(=O)NC2=O)c2ccc(-c3cnn(CCC(=O)Nc4ccc5c(F)c(N6CC(=O)NS6(=O)=O)c(O)cc5c4)c3)cc21 (stereo not drawn)" reported_measurement="50 to 200 nM"
molecule="Cn1c(=O)n(C2CCC(=O)NC2=O)c2ccc(N3CCC(CNC(=O)c4ccc5c(F)c(N6CC(=O)NS6(=O)=O)c(O)cc5c4)CC3)cc21 (stereo not drawn)" reported_measurement="50 to 200 nM"
molecule="Cn1c(=O)n(C2CCC(=O)NC2=O)c2ccc(C3CCN(CCCCOc4ccc5cc(O)c(N6CC(=O)NS6(=O)=O)c(F)c5c4)CC3)cc21 (stereo not drawn)" reported_measurement="200 to 1000 nM"
molecule="Cn1c(=O)n(C2CCC(=O)NC2=O)c2cccc(OC3CCN(CC(=O)NCCOc4ccc5cc(O)c(N6CC(=O)NS6(=O)=O)c(F)c5c4)CC3)c21 (stereo not drawn)" reported_measurement="200 to 1000 nM"
molecule="Cn1c(=O)n(C2CCC(=O)NC2=O)c2ccc(N3CCC(CC(=O)N4CC=C(c5ccc6cc(O)c(N7CC(=O)NS7(=O)=O)c(F)c6c5)CC4)CC3)cc21 (stereo not drawn)" reported_measurement="200 to 1000 nM"
molecule="Cn1c(=O)n(C2CCC(=O)NC2=O)c2ccc(C3CCN(CC(=O)Nc4ccc5c(F)c(N6CC(=O)NS6(=O)=O)c(O)cc5c4)CC3)cc21 (stereo not drawn)" reported_measurement="50 to 200 nM"
molecule="Cn1nc(C2CCC(=O)NC2=O)c2ccc(C3CCN(C4CC(C(=O)Nc5ccc6c(F)c(N7CC(=O)NS7(=O)=O)c(O)cc6c5)C4)CC3(F)F)cc21 (stereo not drawn)" reported_measurement="50 to 200 nM"
molecule="Cn1c(=O)n(C2CCC(=O)NC2=O)c2ccc([C@H]3CC[C@H](CC(=O)Nc4ccc5c(F)c(N6CC(=O)NS6(=O)=O)c(O)cc5c4)CC3)cc21 (single isomer, unassigned) [Example 81b]" reported_measurement="200 to 1000 nM"

###

- experimental.target: PTPN2 (Homo sapiens, UniProt P17706)
- Construct: expressed in transfected cells; host or cells: 293T (293T.109 HiBiT-PTPN2 line; parental 293T WT from ATCC)
- Sequence (P17706 whole entry, species assumed): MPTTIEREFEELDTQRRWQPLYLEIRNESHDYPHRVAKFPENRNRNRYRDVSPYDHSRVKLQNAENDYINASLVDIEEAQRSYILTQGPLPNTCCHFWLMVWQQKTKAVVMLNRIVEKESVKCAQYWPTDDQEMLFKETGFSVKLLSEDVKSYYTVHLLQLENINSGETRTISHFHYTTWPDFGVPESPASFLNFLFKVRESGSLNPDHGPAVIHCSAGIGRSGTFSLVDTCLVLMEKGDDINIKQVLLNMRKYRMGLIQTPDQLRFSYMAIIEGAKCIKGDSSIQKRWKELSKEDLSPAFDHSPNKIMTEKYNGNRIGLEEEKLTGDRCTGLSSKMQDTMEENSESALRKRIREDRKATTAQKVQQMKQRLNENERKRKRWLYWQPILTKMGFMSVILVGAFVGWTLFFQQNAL
- assay.overview: HiBiT-Degradation 293T.109 PTPN2 (Nano-Glo HiBiT Lytic Assay)
- Assay type: cell-based
- experimental.conditions: 293T.109 (HiBiT-PTPN2) cells, 24.0 hours
quantity.name: DC50

molecule="Cn1c(=O)n(C2CCC(=O)NC2=O)c2ccc(C3CCN(C(=O)Cn4cc(-c5ccc6c(F)c(N7CC(=O)NS7(=O)=O)c(O)cc6c5)cn4)CC3(F)F)cc21 (stereo not drawn)" reported_measurement="10 to 50 nM"
molecule="O=C(CCOCCn1cc(C2(Nc3cccc4c3C(=O)N(C3CCC(=O)NC3=O)C4=O)CC2)nn1)NCCOc1ccc2cc(O)c(N3CC(=O)NS3(=O)=O)c(F)c2c1 (stereo not drawn)" reported_measurement="≥ 1000 nM"
molecule=Cn1c(=O)n([C@@H]2CCC(=O)NC2=O)c2ccc(C3CCN(CC(=O)NCCOc4ccc5cc(O)c(N6CC(=O)NS6(=O)=O)c(F)c5c4)CC3)cc21 reported_measurement="50 to 200 nM"

###

- Test system: PTPN2
- assay.overview: HiBiT-Degradation B16F10.4 PTPN2
- Assay type: cell-based
- experimental.conditions: B16F10.4 cells, 24.0 hours
quantity.name: DC50

compound="O=C1CCC(N2C(=O)c3cccc4c(C5CCN(CC(=O)N6CC(Oc7ccc8cc(O)c(N9CC(=O)NS9(=O)=O)c(F)c8c7)C6)CC5)ccc2c34)C(=O)N1 (stereo not shown) [Example 158]" quantity_name=DC50 reported_measurement="50 to 200 nM"
compound="O=C1CCC(N2Cc3c(NCc4cn(CCC(=O)Nc5ccc6c(F)c(N7CC(=O)NS7(=O)=O)c(O)cc6c5)nn4)cccc3C2=O)C(=O)N1 (stereo not shown) [Example 62]" quantity_name=DC50 reported_measurement="≥ 1000 nM"
compound="Cn1c(=O)n(C2CCC(=O)NC2=O)c2ccc(N3CCC(OCC(=O)Nc4ccc5c(F)c(N6CC(=O)NS6(=O)=O)c(O)cc5c4)CC3)cc21 (stereo not shown) [Example 84]" quantity_name=DC50 reported_measurement="50 to 200 nM"
compound="Cn1c(=O)n(C2CCC(=O)NC2=O)c2ccc(C3CCN(CC(=O)N4CC[C@H](COc5ccc6cc(O)c(N7CC(=O)NS7(=O)=O)c(F)c6c5)C4)CC3)cc21 (stereo partly shown) [Example 133]" quantity_name=DC50 reported_measurement="50 to 200 nM"

###

- experimental.target: PTPN2 (Homo sapiens)
- Construct: expressed in transfected cells; host or cells: 293T (293T.109 HiBiT-PTPN2 line; parental 293T WT from ATCC)
- assay.overview: HiBiT-Degradation 293T.109 PTPN2 (Nano-Glo HiBiT Lytic Assay)
- Assay type: cell-based
- experimental.conditions: 293T.109 (HiBiT-PTPN2) cells, 24.0 hours
quantity.name: DC50

molecule="Cn1c(=O)n(C2CCC(=O)NC2=O)c2ccc(N3CCC(C4CCN(C(=O)COc5ccc6cc(O)c(N7CC(=O)NS7(=O)=O)c(F)c6c5)CC4)CC3)cc21 (stereo not drawn) [Example 109]" reported_measurement="200 to 1000 nM"
molecule="Cn1c(=O)n(C2CCC(=O)NC2=O)c2ccc(C3CCN(CC(=O)Nc4ccc5c(F)c(N6CC(=O)NS6(=O)=O)c(O)cc5c4)CC3)cc21 (stereo not drawn) [Example 22]" reported_measurement="< 10 nM"
molecule="Cn1c(=O)n(C2CCC(=O)NC2=O)c2cccc(C3CCN(CC(=O)Nc4ccc5c(F)c(N6CC(=O)NS6(=O)=O)c(O)cc5c4)CC3)c21 (stereo not drawn) [Example 25]" reported_measurement="200 to 1000 nM"
molecule="Cn1c(=O)n(C2CCC(=O)NC2=O)c2ccc(NC3CCN(CCNc4ccc5c(F)c(N6CC(=O)NS6(=O)=O)c(O)cc5c4)CC3)cc21 (stereo not drawn) [Example 53]" reported_measurement="200 to 1000 nM"
molecule="Cn1c(=O)n(C2CCC(=O)NC2=O)c2ccc(-c3cnn(CC(=O)Nc4ccc5c(F)c(N6CC(=O)NS6(=O)=O)c(O)cc5c4)c3)cc21 (stereo not drawn) [Example 172]" reported_measurement="10 to 50 nM"
molecule="O=C1CCC(N2C(=O)c3cccc4c(C5CCN(CC(=O)N6CC(Oc7ccc8cc(O)c(N9CC(=O)NS9(=O)=O)c(F)c8c7)C6)CC5(F)F)ccc2c34)C(=O)N1 (stereo not drawn) [Example 165]" reported_measurement="10 to 50 nM"
molecule="Cn1c(=O)n(C2CCC(=O)NC2=O)c2ccc(C3CCN(Cc4cnn(-c5ccc6cc(O)c(N7CC(=O)NS7(=O)=O)c(F)c6c5)c4)CC3)cc21 (stereo not drawn) [Example 125]" reported_measurement="50 to 200 nM"
molecule="O=C1CCC(N2C(=O)c3cccc(NCC(=O)N4CCC(C(=O)NCCOc5ccc6cc(O)c(N7CC(=O)NS7(=O)=O)c(F)c6c5)CC4)c3C2=O)C(=O)N1 (stereo not drawn) [Example 1]" reported_measurement="200 to 1000 nM"
molecule="O=C1CCC(N2C(=O)c3cccc(NCc4cnn(CCC(=O)Nc5ccc6c(F)c(N7CC(=O)NS7(=O)=O)c(O)cc6c5)c4)c3C2=O)C(=O)N1 (stereo not drawn) [Example 12]" reported_measurement="200 to 1000 nM"
molecule="Cn1nc(C2CCC(=O)NC2=O)c2ccc([C@H]3CC[C@H](CC(=O)Nc4ccc5c(F)c(N6CC(=O)NS6(=O)=O)c(O)cc5c4)CC3)cc21 (single isomer, unassigned) [Example 179]" reported_measurement="10 to 50 nM"
molecule="Cn1c(=O)n(C2CCC(=O)NC2=O)c2ccc(N3CCN(CC(=O)Nc4ccc5c(F)c(N6CC(=O)NS6(=O)=O)c(O)cc5c4)CC3)cc21 (stereo not drawn) [Example 159]" reported_measurement="50 to 200 nM"
molecule="Cn1c(=O)n(C2CCC(=O)NC2=O)c2ccc(C3CCN(CC(=O)NCCOc4ccc5cc(O)c(N6CC(=O)NS6(=O)=O)c(F)c5c4)CC3)cc21 (stereo not drawn) [Example 4]" reported_measurement="50 to 200 nM"
molecule="Cn1c(=O)n(C2CCC(=O)NC2=O)c2ccc(-c3ccc(CCC(=O)Nc4ccc5c(F)c(N6CC(=O)NS6(=O)=O)c(O)cc5c4)cc3)cc21 (stereo not drawn) [Example 116]" reported_measurement="50 to 200 nM"
molecule="Cn1c(=O)n(C2CCC(=O)NC2=O)c2ccc(C3CCN(CC(=O)N4CC(Oc5ccc6cc(O)c(N7CC(=O)NS7(=O)=O)c(F)c6c5)C4)CC3(F)F)cc21 (stereo not drawn) [Example 80]" reported_measurement="10 to 50 nM"
molecule="Cn1c(=O)n(C2CCC(=O)NC2=O)c2ccc(N3CCC(CC(=O)Nc4ccc5c(F)c(N6CC(=O)NS6(=O)=O)c(O)cc5c4)CC3)cc21 (stereo not drawn) [Example 78]" reported_measurement="10 to 50 nM"
molecule="O=C(CN1CCC(n2cc(CNc3cccc4c3C(=O)N(C3CCC(=O)NC3=O)C4=O)nn2)CC1)NCCOc1ccc2cc(O)c(N3CC(=O)NS3(=O)=O)c(F)c2c1 (stereo not drawn) [Example 40]" reported_measurement="200 to 1000 nM"
molecule="Cn1c(=O)n(C2CCC(=O)NC2=O)c2ccc(C3CCN(C(=O)Cn4cc(-c5ccc6c(F)c(N7CC(=O)NS7(=O)=O)c(O)cc6c5)cn4)CC3)cc21 (stereo not drawn) [Example 74]" reported_measurement="< 10 nM"
molecule="Cn1c(=O)n(C2CCC(=O)NC2=O)c2ccc(C3CCN(Cc4ccn(-c5ccc6c(F)c(N7CC(=O)NS7(=O)=O)c(O)cc6c5)n4)CC3)cc21 (stereo not drawn) [Example 154]" reported_measurement="200 to 1000 nM"
